- Tested on: SF-268 CNS
- test.details: NCI-60 one-dose screen, 48 h
- reported.conditions: 10 µM unless noted
About 83,000 compounds went through this panel and 20% of them were active in at least one assay; those are over-represented in the sample as a whole. Activity calls are given as the source filed them. Rule for the calls: active = growth percent below 10; inactive = the rest.
Permitted responses: 1 (active), -1 (inactive)

Query block: Look up the recorded call for COc1ccc(C2C3=C(COC3=O)N(CCO)c3cc(OC)c(OC)cc32)cc1 (stereo not given) in this test.
Result block: -1

Query block: Look up the recorded call for COc1cc(NC(C)CCCN)c2ncccc2c1Sc1ccc(Cl)cc1 (stereo not given) in this test.
Result block: -1

Query block: Look up the recorded call for COc1ccc(/C(=C\c2cc(OC)c(OC)c(OC)c2)C(=O)N2CCN(c3ccccc3)CC2)cc1O in this test.
Result block: -1

Query block: Look up the recorded call for COc1ccc(C2=Nn3c(nnc3-c3ccc(Cl)cc3N)SC2)cc1 in this test.
Result block: -1

Query block: Look up the recorded call for C=CCn1c(SCC(=O)Nc2ccc(/C(C)=N\O)cc2)nnc1-c1cc(-c2ccccc2)nc2ccccc12 in this test.
Result block: -1

Query block: Look up the recorded call for Nc1ccc(C(OC(=O)c2cc3ccccc3c(Cc3c(O)c(C(=O)OC(c4ccc(N)cc4)(c4ccc(N)cc4)c4ccc(N)cc4)cc4ccccc34)c2O)(c2ccc(N)cc2)c2ccc(N)cc2)cc1 in this test.
Result block: -1

Query block: Look up the recorded call for COc1ccc2[nH]c(O)c(/C=c3/ccc4c(c3)N=C(c3ccc(C(F)(F)F)cc3)N=4)c2c1 in this test.
Result block: -1

Query block: Look up the recorded call for COc1ccc(C2=CC(c3ccc(OC)cc3Br)N3C=CSC3=N2)cc1 (stereo not given) in this test.
Result block: -1

Query block: Look up the recorded call for O=C(Nc1ccccc1)C(CCCCN1C(=O)c2ccccc2C1=O)N1C(=O)c2ccccc2C1=O (stereo not given) in this test.
Result block: -1

Query block: Look up the recorded call for Cc1cc(N=Nc2ccc(-c3ccc(N=Nc4ccc(O)c(C(=O)O)c4)cc3)cc2)c(N)c(N=Nc2ccc(C(=O)O)cc2)c1N in this test.
Result block: -1

Query block: Look up the recorded call for Cc1cc(C)c2c(n1)sc1c(Nc3ccc(Cl)cc3Cl)ncnc12 in this test.
Result block: -1

Query block: Look up the recorded call for CC[C@H](Nc1nc(N)nc(C2CC2)c1C#N)c1nc2cccc(NCc3ccc(C(=O)NO)cc3)c2c(=O)n1-c1ccccc1 in this test.
Result block: 1

Query block: Look up the recorded call for CCCc1cc2c(cc1CN(Cc1cc3c(cc1CCC)OCO3)C(=N)OCC)OCO2 in this test.
Result block: -1

Query block: Look up the recorded call for Cc1ccc(CSCc2ccc(C(=O)NC3CC3)o2)cc1 in this test.
Result block: -1

Query block: Look up the recorded call for O=C(C(Br)C(Br)c1ccccc1)C(Br)C(Br)c1ccccc1 (stereo not given) in this test.
Result block: 1

Query block: Look up the recorded call for O=C1C=CC(=O)N1CO in this test.
Result block: -1

Query block: Look up the recorded call for COc1c(B(O)O)cccc1-c1nc2c(F)cc3n[nH]c(C)c3c2c2c1CCCC2 in this test.
Result block: -1

Query block: Look up the recorded call for Nc1cc2nc3ccccc3oc-2cc1=O in this test.
Result block: -1

Query block: Look up the recorded call for CCCCCCCCCCC(C(O)c1ccccc1)N1CCCCC1 (stereo not given) in this test.
Result block: -1

Query block: Look up the recorded call for COc1ccc(/C(=C\c2ccc3c(c2)OCO3)C(=O)Nc2nc3ccc(F)cc3s2)cc1OC in this test.
Result block: -1
